Please provide measured inhibition at 1 µM for the entries that follow.
Test system: Angiotensin II (aortic blood vessel of a rabbit)
Test: Angiotensin II antagonistic effect, inhibition of A II-induced isometric tension change of isolated rabbit aortic blood vessel
Format: cell-based
Settings: Oryctolagus cuniculus, 0.25 h; Concn. of drug substance 10^-6 M; A II 4×10^-9 M; 15 minutes treatment; read-out: Potency of inhibition
Express your answer as a number followed by its unit.

| chem smiles | value |
| --- | --- |
| O=C(O)Cc1nc(C2CCCC2)n(Cc2ccccc2)c1Cl | 10% |

Record inhibition at 1 µM per entry; entries follow.
1. CCCCc1nc(CC(=O)O)c(Cl)n1Cc1ccccc1Cl
2. CCCCc1nc(CC(=O)O)c(Cl)n1Cc1ccccc1

Ans.
1: 30%; 2: 22%

The molecule `CCCCc1nc(Cl)c(CC(N)=O)n1Cc1ccccc1` showed inhibition at 1 µM equal to 19%
